These entries and their values trace back to patent US8987239B2.

tested target: mineralocorticoid receptor (Homo sapiens (Human))
Sequence (P08235 whole entry, species assumed): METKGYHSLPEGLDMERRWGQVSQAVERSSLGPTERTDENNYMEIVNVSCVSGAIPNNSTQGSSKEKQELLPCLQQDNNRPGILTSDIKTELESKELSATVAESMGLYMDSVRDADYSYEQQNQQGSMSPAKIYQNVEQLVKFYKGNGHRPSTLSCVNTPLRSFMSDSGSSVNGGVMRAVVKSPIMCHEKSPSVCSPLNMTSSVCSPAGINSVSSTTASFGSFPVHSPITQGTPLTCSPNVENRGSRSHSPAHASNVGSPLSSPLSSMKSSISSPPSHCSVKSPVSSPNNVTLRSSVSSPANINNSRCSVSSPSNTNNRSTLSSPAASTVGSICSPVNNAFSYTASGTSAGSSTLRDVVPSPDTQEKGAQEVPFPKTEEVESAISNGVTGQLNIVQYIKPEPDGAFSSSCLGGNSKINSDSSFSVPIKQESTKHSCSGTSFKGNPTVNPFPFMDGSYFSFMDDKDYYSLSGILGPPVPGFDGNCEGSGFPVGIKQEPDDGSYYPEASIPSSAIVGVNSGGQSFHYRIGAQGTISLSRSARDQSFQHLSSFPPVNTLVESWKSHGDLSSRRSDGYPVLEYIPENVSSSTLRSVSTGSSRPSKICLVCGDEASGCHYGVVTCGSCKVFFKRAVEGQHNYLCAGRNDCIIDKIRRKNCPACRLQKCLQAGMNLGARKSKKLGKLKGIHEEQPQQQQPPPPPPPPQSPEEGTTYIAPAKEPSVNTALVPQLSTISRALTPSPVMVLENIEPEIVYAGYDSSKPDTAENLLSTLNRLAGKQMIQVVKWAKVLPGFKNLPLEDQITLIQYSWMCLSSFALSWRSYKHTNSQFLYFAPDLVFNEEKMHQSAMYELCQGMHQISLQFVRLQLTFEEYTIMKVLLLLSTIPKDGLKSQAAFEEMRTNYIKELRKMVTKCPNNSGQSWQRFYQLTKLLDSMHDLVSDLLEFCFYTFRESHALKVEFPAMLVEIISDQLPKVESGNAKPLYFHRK
assay comment: Mineralocorticoid receptor binding test (displacement of 3H-aldosterone)
condition summary: cytosol from MR-expressing insect cells (Hi5), reference 3H-aldosterone
Receptor binding Mineralocorticoid receptor Competition factor for assorted compounds
Would you mind answering with just the numeric figure?

Example entries and their recorded answers appear below.
[
  {
    "compound": "CC1CC2=CC(=O)CCC2C2CC[C@@]3(C)C(C4CC4[C@@]34CCC(=O)O4)C12 (some centres unmarked)",
    "value observed": 1.3
  },
  {
    "compound": "CCC1CC2=CC(=O)CCC2C2CC[C@@]3(C)C(C4CC4[C@@]34CCC(=O)O4)C12 (some centres unmarked)",
    "value observed": 1.2
  },
  {
    "compound": "C=CC1CC2=CC(=O)CCC2C2CC[C@@]3(C)C(C4CC4[C@@]34CCC(=O)O4)C12 (some centres unmarked)",
    "value observed": 1.4
  },
  {
    "compound": "C[C@]12CCC3C4CCC(=O)C=C4C4(CC4)CC3C1C1CC1[C@@]21CCC(=O)O1 (some centres unmarked)",
    "value observed": 0.9
  },
  {
    "compound": "C[C@]12CCC3C4CCC(=O)C=C4CC(C4CC4)C3C1C1CC1[C@@]21CCC(=O)O1 (some centres unmarked)",
    "value observed": 1.6
  }
]

Given the entry C[C@]12CCC3C4CCC(=O)C=C4[C@H](CO)CC3C1C1CC1[C@@]21CCC(=O)O1 (some centres unmarked) , what Receptor binding Mineralocorticoid receptor Competition factor was observed with mineralocorticoid receptor (Homo sapiens (Human))? 2.1

Given the entry C[C@]12CCC(=O)C=C1[C@@H]1C[C@@H]1[C@H]1[C@@H]3[C@@H]4C[C@@H]4[C@@]4(CCC(=O)O4)[C@@]3(C)CC[C@@H]12 [A, reference compound] , what Receptor binding Mineralocorticoid receptor Competition factor was observed with mineralocorticoid receptor (Homo sapiens (Human))? 0.5

Given the entry C[C@]12CCC3C4CCC(=O)C=C4CCC3C1C1CC1[C@@]21CCC(=O)O1 (some centres unmarked) , what Receptor binding Mineralocorticoid receptor Competition factor was observed with mineralocorticoid receptor (Homo sapiens (Human))? 1.8
